Experiment: Plasma pharmacokinetics after single IV and PO dosing
Type: in vivo, female CD1 mice
Conditions: female, CD-1, mouse; PO, 20 mg/kg, plasma; read-out: Cmax

Molecule | Cmax, ng/mL
CC1=C(/C=C/C(C)=C/C=C/C(C)=C/C(=O)Nc2ccc(F)cc2)C(C)(C)CCC1n1ccnc1 (racemic) [VNLG-152R] | 3750

====

Experiment: Plasma pharmacokinetics after single IV and PO dosing
Assay type: in vivo, female CD1 mice
Settings: female, CD-1, mouse; PO, 20 mg/kg, plasma

Molecule | half-life
CC1=C(/C=C/C(C)=C/C=C/C(C)=C/C(=O)Nc2ccc(F)cc2)C(C)(C)CCC1n1ccnc1 (racemic) [VNLG-152R] | 9.25 h

The measured values listed here are drawn from paper PMC6468747.
